B1: ZNF193 (parent)
chain: QKRYHCKECGKVFSQSAGLIQHQR

- Variants of: B1
- experiment description: protein stability index of a GFP-peptide fusion (GPS, HEK-293T) (PSI 1-6); higher = more stable;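 also: lentivirally expressed fusions sorted by FACS into six bins by GFP to DsRed ratio, PSI derived from sequencing read proportions per bin multiplied by bin number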
- condition: c terminus: a fixed tail appended
Classification field: enter t for protein stability index values not below 2, f for values below it.

Worked cases, answers included:
biopolymer sequence	class
QKRYHCKECGKVFSQSAGLIQHSR [Q23S]	t
QKRYHCKECGKVLSQSAGLIQHQR [F13L]	t
QKRYHCKECGKVFSQSAGVIQHQR [L19V]	t
QKRYMCKECGKVFSQSAGLIQHQR [H5M]	t

**Q:** Can QKRPHCKECGKVFSQSAGLIQHQR [Y4P] be said to have protein stability index at or above 2?
**A:** t

**Q:** Can QKRYHCKACGKVFSQSAGLIQHQR [E8A] be said to have protein stability index at or above 2?
**A:** t
